Values from PubChem BioAssay (NCI)

# Tested on: HCT-116 colon
# Experiment Notes: NCI-60 one-dose screen, 48 h (100 = growth as untreated, 0 = no growth, -100 = all killed)
# Measurement Context: 10 µM unless noted
About 83,000 compounds went through this panel and 20% of them were active in at least one assay; those are over-represented in the sample as a whole.
Property Name: growth (%)
Respond with the bare value in %.

Molecule	growth [%]
COc1ccc(C(=O)C(C)Br)cc1OC (centres undefined)	52.2
Cc1ccc(C(=O)Nc2ccc(Cl)cc2C(=O)NCc2ccccc2)cc1	89.9
O=C1NCC(Nc2ccc(Br)cc2Cl)C(=O)N1 (centres undefined)	102

Proceeding to the next molecule to report its growth.
I am curious: what growth value has been reported for CCOC(=O)c1ccccc1OC(=O)NNc1ccccc1 ? 70.8
